target: T1, recombinant human GM-CSF (human, UniProt P04141 18-144); assay: ELISA on coated rhGM-CSF, UBA relative to 1D2
T1 construct: also called rhGM-CSF; CSF2
T1 sequence (P04141 18-144 limits assumed): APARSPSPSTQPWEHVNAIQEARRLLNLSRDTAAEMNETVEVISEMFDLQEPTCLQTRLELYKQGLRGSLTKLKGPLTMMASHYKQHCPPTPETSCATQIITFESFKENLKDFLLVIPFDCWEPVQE
Measured parameter: binding affinity % of 1D2 (%)
Lab book: enter the figure in %, no units written.

Worked cases, answers included:
Binder | binding affinity % of 1D2 (%)
1D2 SDR mutant HK54S (antibody, IgG1, V domains shown, also called X3 S) VH: QVQLVQSGAEVKKPGASVKVSCEASGYTFTDKYLHWVRQAPGQGLEWMAWINPSSGGTFYAQNFKGRVTVTRDTSINTAYLELTSLRLDDTSTYYCARGRDYYDQGAADLWGQGTMVTVSS VL: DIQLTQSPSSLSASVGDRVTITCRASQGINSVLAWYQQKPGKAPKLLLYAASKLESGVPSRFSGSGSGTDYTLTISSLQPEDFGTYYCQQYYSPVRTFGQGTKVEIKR | 82
1D2 SDR mutant HK32D (antibody, IgG1, V domains shown, also called X2 D) VH: QVQLVQSGAEVKKPGASVKVSCEASGYTFTDDYLHWVRQAPGQGLEWMAWINPKSGGTFYAQNFKGRVTVTRDTSINTAYLELTSLRLDDTSTYYCARGRDYYDQGAADLWGQGTMVTVSS VL: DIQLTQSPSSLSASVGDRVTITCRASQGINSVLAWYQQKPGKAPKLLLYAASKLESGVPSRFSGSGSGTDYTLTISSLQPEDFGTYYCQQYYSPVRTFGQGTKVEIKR | 90

Okay, next one:
Req: Look up and report measured binding affinity % of 1D2 for this entry: 1D2 SDR mutant HY102T (antibody, IgG1, V domains shown, also called X5 T) VH: QVQLVQSGAEVKKPGASVKVSCEASGYTFTDKYLHWVRQAPGQGLEWMAWINPKSGGTFYAQNFKGRVTVTRDTSINTAYLELTSLRLDDTSTYYCARGRDTYDQGAADLWGQGTMVTVSS VL: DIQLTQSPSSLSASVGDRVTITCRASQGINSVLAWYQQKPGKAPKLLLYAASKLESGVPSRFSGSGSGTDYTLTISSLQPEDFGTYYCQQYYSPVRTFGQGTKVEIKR
Resp: 56

This collection of values is drawn from patent US20210309732A1.
